B1: TOR1AIP2 (parent)
chain: SPGHSSAGQEGEDTLRRRLLAPEA

variants of: B1; assay: protein stability index of a GFP-peptide fusion (GPS, HEK-293T) (PSI 1-6); higher = more stable; conditions: c terminus: a fixed tail appended;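 also: lentivirally expressed fusions sorted by FACS into six bins by GFP to DsRed ratio, PSI derived from sequencing read proportions per bin multiplied by bin number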
Outcome label depends on protein stability index relative to 4: at/above gives true, below gives false.

INSERT INTO results (variant_annotation, group) VALUES
  ('E23P', 'true'),
  ('L19S', 'true'),
  ('T14K', 'true'),
  ('D13R', 'false'),
  ('E23G', 'true'),
  ('P2A', 'false'),
  ('G8D', 'true'),
  ('S1E', 'true'),
  ('P2H', 'true'),
  ('D13T', 'false'),
  ('A7E', 'true'),
  ('D13I', 'false');
